# Tested on: c-Src;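 note: 11-residue human phosphosite peptides and single-mutation variants displayed on the E. coli surface, counted by deep sequencing, each peptide's frequency after selection divided by its frequency in the unselected input library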;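 note: frequency after pTyr selection over input frequency; kinase dosed for 20-30% of maximal phosphorylation in three min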
# Protocol summary: phosphorylation enrichment, bacterial display (enrichment ratio); higher = better substrate or ligand; peptides without Tyr show the background
# phosphorylation enrichment >= 0.5 gives T, anything below gives F

[in] Please check the record NFAKMYCNPDA [KNL1_Y489_YF] and state if its phosphorylation enrichment is at or above 0.5.
[out] T

[in] # check: phosphorylation enrichment of VQSASYLNDCL [MCM3AP_Y864_A867D] is greater than or equal to 0.5
[out] F

[in] Quick check: does CTTIHYSYMCN [TP53_Y234_N235S] have phosphorylation enrichment greater than or equal to 0.5?
[out] T

[in] Given the entry ADQLDYIKALN [HPRT1_Y81_L78Q] , answer whether its phosphorylation enrichment meets or surpasses 0.5.
[out] F

[in] I'd appreciate it if you could say whether SIVEDYRPPFY [ACVRL1_Y421_G416S] has phosphorylation enrichment at least equal to 0.5.
[out] F

[in] Is the recorded value of phosphorylation enrichment equal to or greater than 0.5 for this sequence? LRFKQYLRNPP [SHC1_Y315]
[out] T

[in] Determine whether measured phosphorylation enrichment meets or exceeds 0.5 for AEQDWYHGAIP [FER_Y461]
[out] T

[in] // inclusive: phosphorylation enrichment at least 0.5? input: HELYVYKCDEN [DOCK3_Y548]
[out] T

[in] Is it the case that YIRRDYEACKA [BBS4_Y48_K46R] has phosphorylation enrichment reaching or exceeding 0.5?
[out] T

[in] Entry LSGVIYVILWK [PMP22_Y153_R157W] : is its phosphorylation enrichment no less than 0.5?
[out] T

[in] # check: phosphorylation enrichment of PYRQWYESHYA [RPS8_Y113] is greater than or equal to 0.5
[out] T

[in] phosphorylation enrichment >= 0.5 for ATPKGYETDAS [OTC_Y223_P225T] ?
[out] T

[in] Answer whether phosphorylation enrichment of DKVFTYIFIME [SCN4A_Y1074] is greater than or equal to 0.5.
[out] T

[in] Does the sequence GCCSWYRGWAP [TIMP3_Y195_Y191C] have recorded phosphorylation enrichment that is 0.5 or more?
[out] T

[in] Textbook exercise: given the entry EYKKKYSDADI [CKAP5_Y1860] , state whether its phosphorylation enrichment is greater than or equal to 0.5.
[out] F

[in] phosphorylation enrichment >= 0.5 for PTTKTYFPQFD [HBA1_Y43_H46Q] ?
[out] T

[in] Confirm if phosphorylation enrichment reported for the sequence NFADPYRQLPF [CTNND2_Y503_Q507P_YF] is 0.5 or above.
[out] T

[in] Given QSVEPYTKQQL [STAT3_Y640] , state whether its phosphorylation enrichment is at least 0.5.
[out] T

[in] Tell me whether phosphorylation enrichment is at least 0.5 here: TLNHQYDYTFD [CSNK1A1_Y292]
[out] T

[in] Please tell me: is the sequence CTTIRYNFMCN [TP53_Y234_H233R_YF] at or over 0.5 in terms of phosphorylation enrichment?
[out] F

[in] # check: phosphorylation enrichment of SNSAAYSGSVA [PDLIM5_Y382_T381A] is greater than or equal to 0.5
[out] F

[in] Please indicate if the recorded phosphorylation enrichment for MNLLGYRQVRS [CHST4_Y359_H361Q] meets or exceeds 0.5.
[out] F

[in] Given GASWRYGSGVS [NEU1_Y242] , state whether its phosphorylation enrichment is at least 0.5.
[out] F

[in] Quick check, phosphorylation enrichment >= 0.5? AAILGYCRGEA [XPC_Y669]
[out] F

[in] In plain terms: is recorded phosphorylation enrichment at least 0.5 for SKGFAYVHFDS [PABPC5_Y149_YF] ?
[out] F

[in] Does the reported phosphorylation enrichment for LITTLYIGFLG [KCNQ1_Y267] fall at or above the 0.5 mark?
[out] T

[in] Is phosphorylation enrichment at least 0.5? Consider LNNIIYRVERA [CUX2_Y1470]
[out] T

[in] Evaluate IVVVPYEPPEV [TP53_Y220_S215I] : phosphorylation enrichment at minimum 0.5?
[out] F

[in] Textbook exercise: given the entry AVHPGYGFLSE [PCCA_Y143] , state whether its phosphorylation enrichment is greater than or equal to 0.5.
[out] F
